Target: EPHB2 (UniProt P29323)
Sequence (P29323 whole entry, looked up): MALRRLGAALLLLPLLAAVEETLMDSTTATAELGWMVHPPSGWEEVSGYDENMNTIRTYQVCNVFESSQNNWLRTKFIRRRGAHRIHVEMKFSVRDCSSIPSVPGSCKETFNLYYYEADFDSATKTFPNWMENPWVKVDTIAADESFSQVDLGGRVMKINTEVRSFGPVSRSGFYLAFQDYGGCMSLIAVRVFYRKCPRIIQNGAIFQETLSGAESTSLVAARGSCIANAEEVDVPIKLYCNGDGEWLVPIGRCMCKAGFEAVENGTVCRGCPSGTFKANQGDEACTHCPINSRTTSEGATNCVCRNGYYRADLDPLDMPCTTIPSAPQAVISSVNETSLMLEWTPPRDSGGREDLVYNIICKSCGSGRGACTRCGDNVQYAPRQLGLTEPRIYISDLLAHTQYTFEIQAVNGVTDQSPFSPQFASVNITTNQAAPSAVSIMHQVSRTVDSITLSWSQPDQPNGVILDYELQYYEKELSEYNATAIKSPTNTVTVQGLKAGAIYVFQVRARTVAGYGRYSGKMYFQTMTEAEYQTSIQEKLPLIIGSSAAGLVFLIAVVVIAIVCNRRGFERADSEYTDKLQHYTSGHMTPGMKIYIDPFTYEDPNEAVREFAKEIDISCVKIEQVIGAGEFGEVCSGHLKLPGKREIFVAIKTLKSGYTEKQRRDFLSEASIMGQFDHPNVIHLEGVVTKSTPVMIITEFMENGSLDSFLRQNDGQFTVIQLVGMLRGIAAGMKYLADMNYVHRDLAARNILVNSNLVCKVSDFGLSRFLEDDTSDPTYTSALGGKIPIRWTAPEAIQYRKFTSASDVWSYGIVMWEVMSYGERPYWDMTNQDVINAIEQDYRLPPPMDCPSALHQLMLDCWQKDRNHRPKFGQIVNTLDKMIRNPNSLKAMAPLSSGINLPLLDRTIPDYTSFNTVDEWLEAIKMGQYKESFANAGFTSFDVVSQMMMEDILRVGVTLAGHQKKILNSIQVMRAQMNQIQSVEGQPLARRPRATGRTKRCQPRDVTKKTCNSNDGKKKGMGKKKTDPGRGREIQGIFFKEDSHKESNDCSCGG
Test: phosphorylation enrichment, bacterial display (enrichment ratio); higher = better substrate or ligand; peptides without Tyr show the background
parameter: phosphorylation enrichment
Respond using a number only.

Briefly, phosphorylation enrichment measured for LAIERYVVVCK [RHO_Y136] : 1.09

Briefly, phosphorylation enrichment measured for EEALHYLTRVE [SET_Y119] : 0.536

Briefly, phosphorylation enrichment measured for ALKKPYGVLYK [RPF2_Y59] : 0.4

Briefly, phosphorylation enrichment measured for ASRKFYAMKIL [AKT3_Y174_G171R_YF] : 0.428

Briefly, phosphorylation enrichment measured for VPVPGYTKVPE [SPRR3_Y146_L149V] : 0.541

Briefly, phosphorylation enrichment measured for SVMAEYGLFGA [VSX2_Y219_YF] : 0.596

Briefly, phosphorylation enrichment measured for KLQKFYRKNPD [EHHADH_Y683_Q685K_YF] : 0.32

###

Target: EPHB1 (UniProt P54762)
Sequence (P54762 whole entry, looked up): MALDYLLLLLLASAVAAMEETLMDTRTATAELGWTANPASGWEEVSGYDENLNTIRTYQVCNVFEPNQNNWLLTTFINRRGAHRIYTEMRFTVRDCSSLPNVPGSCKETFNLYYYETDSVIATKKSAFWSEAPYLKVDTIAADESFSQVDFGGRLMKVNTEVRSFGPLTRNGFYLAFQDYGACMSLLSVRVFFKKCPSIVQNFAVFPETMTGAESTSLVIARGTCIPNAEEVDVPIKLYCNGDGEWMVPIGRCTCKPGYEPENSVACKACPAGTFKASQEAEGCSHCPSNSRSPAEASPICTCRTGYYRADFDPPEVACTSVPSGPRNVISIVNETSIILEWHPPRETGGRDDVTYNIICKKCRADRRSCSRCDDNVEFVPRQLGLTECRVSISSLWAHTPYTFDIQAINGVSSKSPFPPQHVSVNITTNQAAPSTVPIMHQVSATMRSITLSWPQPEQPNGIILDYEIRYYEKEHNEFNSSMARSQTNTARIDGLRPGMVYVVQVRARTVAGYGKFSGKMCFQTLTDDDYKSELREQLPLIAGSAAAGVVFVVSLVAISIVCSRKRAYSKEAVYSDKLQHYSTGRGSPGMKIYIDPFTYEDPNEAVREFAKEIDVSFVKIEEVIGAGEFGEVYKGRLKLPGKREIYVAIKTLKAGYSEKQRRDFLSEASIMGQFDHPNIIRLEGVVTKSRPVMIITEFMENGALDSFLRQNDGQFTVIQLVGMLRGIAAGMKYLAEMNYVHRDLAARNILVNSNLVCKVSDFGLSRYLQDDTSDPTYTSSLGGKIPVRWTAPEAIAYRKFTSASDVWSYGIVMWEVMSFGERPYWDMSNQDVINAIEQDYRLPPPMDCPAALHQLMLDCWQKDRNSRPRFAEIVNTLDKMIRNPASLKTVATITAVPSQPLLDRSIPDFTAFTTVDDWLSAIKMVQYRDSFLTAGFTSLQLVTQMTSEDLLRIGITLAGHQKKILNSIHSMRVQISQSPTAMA
Assay: phosphorylation enrichment, bacterial display (enrichment ratio); higher = better substrate or ligand; peptides without Tyr show the background
Lab note: compare phosphorylation enrichment against 0.6. Equal or greater, write label 1. Smaller, write label 0.

Hello, I need to know if LDVGEYCVPRG [BEX1_Y43_A40V] has measured phosphorylation enrichment not below 0.6. Thanks!
label 1

Hello, I need to know if TNQVIYLNPPI [DYNC1H1_Y970] has measured phosphorylation enrichment not below 0.6. Thanks!
label 1

Hello, I need to know if PSDLLYIPDIQ [ITGA2B_Y845_L847P] has measured phosphorylation enrichment not below 0.6. Thanks!
label 1

Hello, I need to know if TEIGQYGNGLK [MORC2_Y100_Q96E] has measured phosphorylation enrichment not below 0.6. Thanks!
label 0

Hello, I need to know if GPKSTYISSAA [GOLGA5_Y62] has measured phosphorylation enrichment not below 0.6. Thanks!
label 0

Hello, I need to know if KVNKIYYPDFI [LIG3_Y767] has measured phosphorylation enrichment not below 0.6. Thanks!
label 0

Hello, I need to know if KTKIGYSPLHQ [ANK1_Y735_L733I] has measured phosphorylation enrichment not below 0.6. Thanks!
label 0

Hello, I need to know if GVTLLCYGRYN [ADGRD1_Y85_Y85C] has measured phosphorylation enrichment not below 0.6. Thanks!
label 1

Hello, I need to know if TYQYKYPEGSS [TGM4_Y440_E437Q] has measured phosphorylation enrichment not below 0.6. Thanks!
label 0

Hello, I need to know if HLEKKYVRRDS [CSF1R_Y708] has measured phosphorylation enrichment not below 0.6. Thanks!
label 1

Hello, I need to know if RRGTRYMSSRP [RPL21_Y13_F15S] has measured phosphorylation enrichment not below 0.6. Thanks!
label 0

###

Target: Grb2 SH2 (UniProt P62993)
Sequence (P62993 whole entry, looked up): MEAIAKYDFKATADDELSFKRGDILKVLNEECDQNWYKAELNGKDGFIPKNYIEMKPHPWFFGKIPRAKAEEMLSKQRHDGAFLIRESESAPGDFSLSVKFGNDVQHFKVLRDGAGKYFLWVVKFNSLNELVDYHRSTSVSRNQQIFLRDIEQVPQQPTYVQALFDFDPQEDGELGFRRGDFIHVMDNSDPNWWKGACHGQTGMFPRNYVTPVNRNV
Assay: SH2 binding enrichment of the phosphorylated peptide, bacterial display (enrichment ratio); higher = better substrate or ligand; peptides without Tyr show the background
parameter: SH2 binding enrichment
Respond using a number only.

Briefly, SH2 binding enrichment measured for CSPLLYKVIMS [OR8D4_Y132_R133K] : 0.882

Briefly, SH2 binding enrichment measured for KVVVPYEPPEV [TP53_Y220_S215K] : 0.709

Briefly, SH2 binding enrichment measured for EYQLPYYNTVP [BMPR1A_Y457_M460T] : 9.47

Briefly, SH2 binding enrichment measured for YIGVTYKNKED [PDGFRA_Y993_E996K] : 0.835

Briefly, SH2 binding enrichment measured for VQVAFYTMMMN [SPATA17_Y84_YF] : 0.816

Briefly, SH2 binding enrichment measured for VPHECYAKVFD [ALB_Y394_D389V] : 0.887

Briefly, SH2 binding enrichment measured for LEGAKYVSHGA [ASS1_Y113_R108L] : 1.18

Briefly, SH2 binding enrichment measured for AAAAVYTFLPD [MYORG_Y36_M35V] : 0.882

Briefly, SH2 binding enrichment measured for STEAIYRRFSK [SH3PXD2B_Y42_YF] : 0.812

Briefly, SH2 binding enrichment measured for YFRDGYMPRQY [GSS_Y270] : 1.01

Briefly, SH2 binding enrichment measured for LGSVVYAQSKE [KCNQ2_Y226_H228Q] : 0.974

Briefly, SH2 binding enrichment measured for FPDFVYKCIKA [DPYSL2_Y479_R481C] : 0.818

Briefly, SH2 binding enrichment measured for SVVVPYKPPEV [TP53_Y220_E221K] : 0.795

Briefly, SH2 binding enrichment measured for LVRPPYSYSAL [FOXI1_Y126] : 0.885

Briefly, SH2 binding enrichment measured for KNKNRYKNVLP [PTPN11_Y279_I282V] : 0.734

Briefly, SH2 binding enrichment measured for DKATEYSQFMR [MAX_Y70_I71S_YF] : 0.824

Briefly, SH2 binding enrichment measured for LRNIDYHRLDG [ATRX_Y2083_Y2084H] : 0.725

Briefly, SH2 binding enrichment measured for GDGRFYMMEAI [PGM1_Y66_K68M] : 0.683

Briefly, SH2 binding enrichment measured for TRSYDYMEGED [FGF7_Y58_G62E] : 0.977

Briefly, SH2 binding enrichment measured for KGEDFYCVTYH [FHL1_Y149_C153Y] : 0.562

Briefly, SH2 binding enrichment measured for VTRLRYPVCFG [ITK_Y336] : 1.05

Briefly, SH2 binding enrichment measured for SEASYYKSLNL [NGEF_Y289] : 0.718

Briefly, SH2 binding enrichment measured for HSGIYYKPESL [L2HGDH_Y103] : 0.925

Briefly, SH2 binding enrichment measured for EREYKYGAHKY [OAT_Y50_N54K] : 0.735

Briefly, SH2 binding enrichment measured for GCKNRYDEDKP [THAP1_Y14_K16E] : 1.35

Briefly, SH2 binding enrichment measured for VSSPKYGSDDE [TMCC2_Y473] : 1.13

Briefly, SH2 binding enrichment measured for HCFAAYFQQGD [GPI_Y351_R347C] : 0.984

Briefly, SH2 binding enrichment measured for PDGREYIYVDP [PDGFRA_Y572_H570R] : 0.605

Briefly, SH2 binding enrichment measured for HSRTRYERNIE [F2_Y434] : 1.31

Briefly, SH2 binding enrichment measured for TLQWMYGCDVG [HLA-B_Y123_S121W] : 0.772

Briefly, SH2 binding enrichment measured for LSTPEYGPKLK [TBC1D14_Y46_A43T] : 0.796

Briefly, SH2 binding enrichment measured for MTYMFYRENLR [NLRP14_Y443_V441M] : 1.15

Briefly, SH2 binding enrichment measured for LGPSDYFGETA [PRKAR1A_Y323_I327T] : 0.817

Briefly, SH2 binding enrichment measured for LDYNEYFRNLN [HPRT1_Y198_D201N] : 0.81

Briefly, SH2 binding enrichment measured for APRKVYDTQDD [ZFPL1_Y215_R218Q] : 0.716

Briefly, SH2 binding enrichment measured for NELTFYCFKKD [CD59_Y87_C89Y_YF] : 0.754

Briefly, SH2 binding enrichment measured for DYLEKYYKFGS [NNMT_Y24] : 0.922

Briefly, SH2 binding enrichment measured for TLNTNYHLPPS [MT-ATP8_Y33_M28T] : 0.761

Briefly, SH2 binding enrichment measured for TAGFSYEKWEI [TEC_Y360] : 0.706

Briefly, SH2 binding enrichment measured for FPKVRYHWLVL [APTX_Y214_A212V_YF] : 1.31

Briefly, SH2 binding enrichment measured for EEALFYLTRVE [SET_Y119_H118Y_YF] : 0.774

Briefly, SH2 binding enrichment measured for CRIELYRVVES [IGFBP1_Y181] : 0.819

Briefly, SH2 binding enrichment measured for WISNRSLDFSS [PRPH2_Y184_Y184S] : 0.745

Briefly, SH2 binding enrichment measured for LDCNEYFRDLN [HPRT1_Y198_Y195C] : 1.07

Briefly, SH2 binding enrichment measured for ITSLLYHVVGW [GBA_Y412_N409S] : 1.14

Briefly, SH2 binding enrichment measured for AFGEVYEGQES [ALK_Y1131_V1135E] : 0.842

Briefly, SH2 binding enrichment measured for MYVKSYTIHYS [F5_Y2153] : 0.666

Briefly, SH2 binding enrichment measured for VVTGPYEKPSL [KIR3DS1_Y221_L220P] : 0.875

Briefly, SH2 binding enrichment measured for RRGTRYMSSRP [RPL21_Y13_F15S] : 0.964

Briefly, SH2 binding enrichment measured for GREEFYVHFVG [KAT8_Y90_YF] : 0.867

Briefly, SH2 binding enrichment measured for LPKVSCVKAID [GLRA1_Y307_Y307C] : 0.713

Briefly, SH2 binding enrichment measured for VITDYYVDMKF [MPP4_Y567] : 0.993

Briefly, SH2 binding enrichment measured for TVDASYCGGRG [ANTXR2_Y380_Y381C] : 0.757

Briefly, SH2 binding enrichment measured for FSMGCYEFSLG [HMGCL_Y198_I200F_YF] : 0.923

Briefly, SH2 binding enrichment measured for VNNLVYENING [FRS2_Y306_K303N] : 5.57

Briefly, SH2 binding enrichment measured for SSDKVCAHQMV [MLH1_Y379_Y379C] : 0.984

Briefly, SH2 binding enrichment measured for IDLEKYKLLPE [DHFR_Y157] : 0.844
